Target: STRADα (Homo sapiens)
Construct: wild-type and mutant forms of STRADα (residues 54–431) and MO25α (residues 1–341) were expressed individually as GST fusion proteins in E. coli; GST (cleaved yes); made in house; host or cells: E. coli
Sequence (Q7RTN6 54-431): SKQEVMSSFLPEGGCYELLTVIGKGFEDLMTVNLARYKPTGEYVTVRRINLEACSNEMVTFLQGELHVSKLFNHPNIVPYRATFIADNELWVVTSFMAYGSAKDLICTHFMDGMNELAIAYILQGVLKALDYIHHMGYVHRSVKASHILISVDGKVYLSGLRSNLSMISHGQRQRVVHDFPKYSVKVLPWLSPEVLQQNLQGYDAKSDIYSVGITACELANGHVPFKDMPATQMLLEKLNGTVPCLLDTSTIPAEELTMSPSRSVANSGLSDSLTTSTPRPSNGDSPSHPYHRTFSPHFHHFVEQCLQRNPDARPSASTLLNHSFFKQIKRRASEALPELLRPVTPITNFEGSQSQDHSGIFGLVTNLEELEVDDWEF
Assay: Displacement of TNP-ATP by ATP and ADP (fluorescence)
Format: binding
Settings: STRADα alone, No Mg2+, displacement of 5 µM TNP-ATP; read-out: Kd ATP
reported_endpoint: Kd

Fill in: STRADα (Homo sapiens) Kd for Nc1ncnc2c1ncn2[C@@H]1O[C@H](COP(=O)(O)OP(=O)(O)OP(=O)(O)O)[C@@H](O)[C@H]1O = 2000 to 3000 nM
